# reported Residual turnover [%]; entries follow
- Tested on: HPPD polypeptides
- assayExplanation: coupled HPPD activity assay: turnover and residual turnover in crude extracts
- Assay type: biochemical, Pseudomonas fluorescens
- conditionParameters: 100 μM Cmpd. 1; signal change with inhibitor divided by signal change without inhibitor
Answer with the value and then the unit.

molecule	Residual turnover [%]
4 (protein, mutant HPPD polypeptide) MADLYENPMGLMGFEFIEFASPTPGTLEPIFEIMGFTKVATHRSKNVHLYRQGEINLILNNEPNSIASYFAAEHGPSVCGMAFRVKDSQKAYNRALELGAQPIHIDTGPMELNLPAIKGIGGAPLYLIDRFGEGSSIYDIDFVYLEGVERNPVGAGLKVIDHLTHNVYRGRMVYWANFYEKLFNFREARYFDIKGEYTGLTSKAMSAPDGMIRIPLNEESSKGAGQIEEFLMQFNGEGIQHVAFLTDDLVKTWDALKKIGMRFMTAPGDTYYEMLEGRLPDHGEPVDQLQARGILLDGSSVEGDKRLLLQIFSETLMGPVFFEFIQRKGDDGFGPDSFKVLFESIERDQVRRGVLTAD	44%

Let's switch to this molecule now.
Lookup: Identify measured Residual turnover [%] corresponding to 14 (protein, mutant HPPD polypeptide) MADLYENPMGLMGFEFIEFASPTPGTLEPIFEIMGFTKVATHRSKNVHLYRQGEINLILNNEPNSIASYFAAEHGPSVCGMAFRVKDSQKAYNRALELGAQPIHIDTGPMELNLPAIKGIGGAPLYLIDRFGEGSSIYDIDFVYLEGVERNPVGAGLKVIDHLTHNVYRGRMVYWANFYEKLFNFREARYFDIKGEYTGLTSKAMSAPDGMIRIPLNEESSKGAGQIEEFLMQFNGEGIQHVAFLTDDLVKTWDALKKIGMRFMTAPPDNYYEMLEGRLPDHGEPVDQLQARGILLDGSSVEGDKRLLLQIFSETLMGPVFFEFIQRKGDDGFGPDSFKVLFESVERDQVRRGVLTAD
Found: 33%

Cited source for all entries: patent US11180770B2
